Test system: Zika virus NS2B-NS3 protease (unlinked)
Experiment: Optimization of GU AMC qHTS for Zika virus inhibitors: Unlinked NS2B-NS3 protease assay (AID 1347151); further: nearly all actives have a fitted effect of over 80% in size
Conditions: recombinant ZIKV NS2B-NS3 protease, fluorogenic AMC substrate; series mostly up to 52.5 µM
Records with an inconclusive call do not appear. Activity calls are given as the source filed them. The call rests on the fitted dose curve; in most records, active means well fitted inhibition curve with a large enough effect; inconclusive means small, poorly fitted or top-dose-only effect; inactive means no such curve, though single readings can be large or run the other way.
Possible outcomes: active, inactive

{"compound": "Cc1cnc(C(=O)NCCc2ccc(S(=O)(=O)NC(=O)NC3CCCCC3)cc2)cn1", "labelClass": "inactive"}
{"compound": "Nc1nc2c(ncn2COC(CO)CO)c(=O)[nH]1", "labelClass": "inactive"}
{"compound": "O=C1Cc2cc(CCN3CCN(c4nsc5ccccc45)CC3)c(Cl)cc2N1", "labelClass": "active"}
{"compound": "CN1CCN2c3ccccc3Cc3ccccc3C2C1 (stereo not given)", "labelClass": "inactive"}
{"compound": "CN1C(C(=O)Nc2ccccn2)=C(O)c2ccccc2S1(=O)=O", "labelClass": "inactive"}

* * *

Experiment: Cellular Toxicity (caspase-3) Hek293 (AID 664);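 further: cells exposed to compound for 16 h at 37 °C before readout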; further: potency means the concentration at half of the fitted maximal effect
Conditions: HEK293 caspase-3 activation
Results filed as inconclusive are left out. Activity calls are given as the source filed them. Calls come from the whole dose curve; as a rule, active = well fitted activation curve with a large enough effect; inconclusive = small, poorly fitted or top-dose-only effect; inactive = flat fitted curve, though single readings scatter.

{"molecule": "Cn1c(=O)c2c(ncn2C)n(C)c1=O", "Potency": "inactive"}
{"molecule": "COc1ccc2[nH]cc(CCNC(C)=O)c2c1", "Potency": "inactive"}
{"molecule": "CC(COc1ccccc1)N(CCCl)Cc1ccccc1 (centres undefined)", "Potency": "31.6 µM (active)"}
{"molecule": "O=c1c(-c2ccc(O)cc2)coc2cc(O)cc(O)c12", "Potency": "inactive"}

* * *

Assay: qHTS of pediatric cancer cell lines to identify multiple opportunities for drug repurposing: Primary screen for SK-N-SH cells (AID 1347098); further: nearly all actives have a fitted effect of over 65% in size
Conditions: SK-N-SH viability, CellTiter-Glo luminescence, 48 h; series mostly up to 57 µM
Results filed as inconclusive are left out. Active and inactive are the calls of the source. The call rests on the fitted dose curve; in most records, active means well fitted cell-killing curve with a large enough effect; inconclusive means small, poorly fitted or top-dose-only effect; inactive means no such curve, though single readings can be large or run the other way.
Possible outcomes: True (active), False (inactive)

{"compound": "CC(C)NCC(O)c1ccc(O)c(O)c1 (configuration not stated)", "labelClass": "False"}
{"compound": "Cc1ccc(-c2cc(C(F)(F)F)nn2-c2ccc(S(N)(=O)=O)cc2)cc1", "labelClass": "False"}
{"compound": "CNCCCC12CCC(c3ccccc31)c1ccccc12", "labelClass": "True"}
{"compound": "O=C(c1ccc(F)cc1)C1CCN(CCn2c(=O)[nH]c3ccccc3c2=O)CC1", "labelClass": "False"}
{"compound": "COc1ccccc1OCCNCC(O)COc1cccc2[nH]c3ccccc3c12 (configuration not stated)", "labelClass": "False"}
{"compound": "CN1CCC(=C2c3ccccc3C=Cc3ccccc32)CC1", "labelClass": "True"}
{"compound": "COc1cc2nc(N3CCN(C(=O)C4COc5ccccc5O4)CC3)nc(N)c2cc1OC (configuration not stated)", "labelClass": "True"}
{"compound": "COc1cc2nc(N3CCN(C(=O)c4ccco4)CC3)nc(N)c2cc1OC", "labelClass": "True"}
{"compound": "COc1ccccc1OCC(O)CN1CCN(CC(=O)Nc2c(C)cccc2C)CC1 (configuration not stated)", "labelClass": "False"}
{"compound": "NS(=O)(=O)c1cc2c(cc1Cl)NCNS2(=O)=O", "labelClass": "False"}
{"compound": "Fc1ccc([C@@H]2CCNC[C@H]2COc2ccc3c(c2)OCO3)cc1", "labelClass": "False"}
{"compound": "O=C(C1CCCCC1)N1CC(=O)N2CCc3ccccc3C2C1 (configuration not stated)", "labelClass": "False"}
{"compound": "NCCS(=O)(=O)O", "labelClass": "False"}
{"compound": "Clc1ccc(C(c2ccccc2Cl)C(Cl)Cl)cc1 (configuration not stated)", "labelClass": "False"}
{"compound": "O=c1c(O)c(-c2ccc(O)c(O)c2)oc2cc(O)cc(O)c12", "labelClass": "True"}
{"compound": "Cc1cc(C(C)(C)C)cc(C)c1CC1=NCCN1", "labelClass": "False"}
{"compound": "Clc1ccc2nsnc2c1NC1=NCCN1", "labelClass": "False"}
{"compound": "CC(C)NCC(O)COc1ccc(CCOCC2CC2)cc1 (configuration not stated)", "labelClass": "False"}
{"compound": "CC(=O)OCC(CCn1cnc2cnc(N)nc21)COC(C)=O", "labelClass": "False"}
{"compound": "COc1ccc(CCN(C)CCCC(C#N)(c2ccc(OC)c(OC)c2)C(C)C)cc1OC (configuration not stated)", "labelClass": "False"}
{"compound": "Cc1cn([C@H]2C=C[C@@H](CO)O2)c(=O)[nH]c1=O", "labelClass": "False"}
{"compound": "Cn1cnc2c1c(=O)[nH]c(=O)n2C", "labelClass": "False"}

* * *

Test system: DIV30
Assay: qHTS profiling for inhibitors of Plasmodium falciparum proliferation (AID 504749); further: nearly all actives have a fitted effect of over 60% in size
Conditions: P. falciparum in erythrocytes, SYBR Green DNA, 72 h; series mostly up to 28.7 µM
Results filed as inconclusive are left out. Active and inactive are the calls of the source. Calls follow the shape of the dose curve; as a rule, active = well fitted inhibition curve with a large enough effect; inconclusive = small, poorly fitted or top-dose-only effect; inactive = flat fitted curve, though single readings scatter.
Outcomes: active, inactive

{"compound": "CC(C)NCC(O)c1ccc(O)c(O)c1 (stereo unspecified)", "testSystem": "DIV30", "labelClass": "inactive"}
{"compound": "Cc1cnc(C(=O)NCCc2ccc(S(=O)(=O)NC(=O)NC3CCCCC3)cc2)cn1", "testSystem": "DIV30", "labelClass": "inactive"}
{"compound": "CN1CCN2c3ccccc3Cc3ccccc3C2C1 (stereo unspecified)", "testSystem": "DIV30", "labelClass": "inactive"}
{"compound": "COC(=O)Nc1nc2ccc(C(=O)c3cccs3)cc2[nH]1", "testSystem": "DIV30", "labelClass": "inactive"}
{"compound": "NCCc1cnc[nH]1", "testSystem": "DIV30", "labelClass": "inactive"}
{"compound": "CCCCc1oc2ccccc2c1C(=O)c1cc(I)c(OCCN(CC)CC)c(I)c1", "testSystem": "DIV30", "labelClass": "active"}

* * *

Assay: qHTS of pediatric cancer cell lines to identify multiple opportunities for drug repurposing: Primary screen for OHS-50 cells (AID 1347103); further: nearly all actives have a fitted effect of over 40% in size
Details: OHS-50 osteosarcoma viability, CellTiter-Glo luminescence, 48 h; series mostly up to 57.3 µM
Inconclusive results are not listed. The source made the active and inactive calls. Calls follow the shape of the dose curve; as a rule, active = well fitted cell-killing curve with a large enough effect; inconclusive = small, poorly fitted or top-dose-only effect; inactive = no such curve, though single readings can be large or run the other way.
Possible outcomes: active, inactive

{"compound": "CCOC(=O)c1ncn2c1CN(C)C(=O)c1cc(F)ccc1-2", "labelClass": "inactive"}
{"compound": "CN1CCN(CCCN2c3ccccc3Sc3ccc(Cl)cc32)CC1", "labelClass": "active"}
{"compound": "CC(COc1ccccc1)N(CCCl)Cc1ccccc1 (stereo not drawn)", "labelClass": "active"}

* * *

# Lookup of reported viability change keyed by entry
Test: Nrf2 qHTS screen for inhibitors: Validation (AID 493153)
Conditions: A549 ARE-Fluc reporter, 18-24 h; measured here: cytotoxicity max response
Records with an inconclusive call do not appear.

{"molecule": "CC#C[C@]1(O)CC[C@H]2[C@@H]3CCC4=CC(=O)CCC4=C3[C@@H](c3ccc(N(C)C)cc3)C[C@@]21C", "viability change [%]": -7.52}
{"molecule": "Cc1ccccc1N1C(=O)c2cc(S(N)(=O)=O)c(Cl)cc2NC1C (centres undefined)", "viability change [%]": 10.1}
{"molecule": "O=C(c1ccc(F)cc1)C1CCN(CCn2c(=O)[nH]c3ccccc3c2=O)CC1", "viability change [%]": 2.61}
{"molecule": "CC[N+](CC)(CC)CCOc1cccc(OCC[N+](CC)(CC)CC)c1OCC[N+](CC)(CC)CC", "viability change [%]": 5.55}

* * *

Experiment: qHTS of pediatric cancer cell lines to identify multiple opportunities for drug repurposing: Primary screen for BT-37 cells (AID 1347094)
Details: BT-37 viability, CellTiter-Glo luminescence, 48 h; series mostly up to 57.3 µM
Description: Drug repurposing or repositioning has been offered as a strategy for drug development in oncology programs. This approach has special potential for childhood cancers and other rare or orphan diseases, where the expected return on new drug development has been a disincentive to pharmaceuticals. […] We employed a titration-based paradigm (quantitative high-throughput screening or qHTS), where all compounds were tested at multiple concentrations for their effect on cell viability. […]
Inconclusive results are not listed. Calls of active or inactive are those of the source. Calls come from the whole dose curve; as a rule, active = well fitted cell-killing curve with a large enough effect; inconclusive = small, poorly fitted or top-dose-only effect; inactive = flat fitted curve, though single readings scatter.
Outcome codes: t for active, f for inactive

{"compound": "NCCCCCC(=O)O", "labelClass": "f"}
{"compound": "CC(C(=O)O)c1cccc(C(=O)c2ccccc2)c1 (centres undefined)", "labelClass": "f"}
{"compound": "Cc1cnc(C(=O)NCCc2ccc(S(=O)(=O)NC(=O)NC3CCCCC3)cc2)cn1", "labelClass": "f"}
{"compound": "C[C@](N)(Cc1ccc(O)c(O)c1)C(=O)O", "labelClass": "f"}
{"compound": "NCCS(=O)(=O)O", "labelClass": "f"}
{"compound": "CC(C)NCC(O)COc1ccc(CCOCC2CC2)cc1 (centres undefined)", "labelClass": "f"}
{"compound": "CCC1(c2ccccc2)C(=O)NCNC1=O", "labelClass": "f"}
{"compound": "CN(C)C(=O)C(CCN1CCC(O)(c2ccc(Cl)cc2)CC1)(c1ccccc1)c1ccccc1", "labelClass": "t"}
{"compound": "Nc1ccn([C@H]2CC[C@@H](CO)O2)c(=O)n1", "labelClass": "f"}
